# ASSAY_TARGET: serotonine transporter (SERT) receptor (Homo sapiens)
# Construct: expressed in transfected cells; host or cells: CHO cells
# Sequence (P31645 whole entry): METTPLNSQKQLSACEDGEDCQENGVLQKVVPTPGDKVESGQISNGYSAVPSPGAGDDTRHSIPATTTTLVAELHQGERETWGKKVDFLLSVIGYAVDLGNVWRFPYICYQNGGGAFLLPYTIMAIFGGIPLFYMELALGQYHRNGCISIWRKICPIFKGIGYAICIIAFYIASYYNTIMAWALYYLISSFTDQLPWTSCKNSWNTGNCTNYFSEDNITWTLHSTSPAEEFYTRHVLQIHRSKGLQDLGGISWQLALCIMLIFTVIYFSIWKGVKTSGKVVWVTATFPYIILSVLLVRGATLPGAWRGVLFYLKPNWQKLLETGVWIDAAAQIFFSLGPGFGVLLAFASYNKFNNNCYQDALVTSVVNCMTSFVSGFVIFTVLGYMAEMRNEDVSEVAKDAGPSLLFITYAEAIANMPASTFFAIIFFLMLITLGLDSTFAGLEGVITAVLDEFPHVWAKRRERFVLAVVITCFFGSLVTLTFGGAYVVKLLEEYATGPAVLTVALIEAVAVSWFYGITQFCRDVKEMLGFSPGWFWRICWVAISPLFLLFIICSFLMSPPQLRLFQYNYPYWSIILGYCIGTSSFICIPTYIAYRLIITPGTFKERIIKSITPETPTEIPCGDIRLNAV
# PROTOCOL_SUMMARY: Binding assay SERT (h), [3H]imipramine, CHO cells
# TEST_PARAMETERS: read-out: SERT [%]
ATTRIBUTE_MEASURED: inhibition at 1 µM (%)
Please state the figure in %; there is no need to write the unit.

Asked: Which value of inhibition at 1 µM has been reported for O=S(=O)(NCCCN1CCN(c2nsc3ccccc23)CC1)c1ccc2cc(Cl)ccc2c1 [Compound 62] in the records?
Given back: 15

Asked: Thanks! And CC(C)(C)c1ccc(S(=O)(=O)NCCCN2CCC(c3noc4cc(F)ccc34)CC2)cc1 [Compound 333] ?
Given back: 5

Asked: Same for O=S(=O)(NCCCCN1CCN(c2nsc3ccccc23)CC1)c1ccc(F)cc1 [Compound 225]
Given back: -4

Asked: Please give the result for O=S(=O)(NCCCN1CCC(c2noc3cc(F)ccc23)CC1)c1cccc(F)c1 [Compound 108] too.
Given back: -9

Asked: // query: O=S(=O)(NCCCN1CCC(c2noc3cc(F)ccc23)CC1)c1ccc(Cl)s1 [Compound 341]
Given back: 8

Asked: And then N#Cc1cccc(S(=O)(=O)NCCCCN2CCN(c3nsc4ccccc34)CC2)c1 [Compound 73] , what is it?
Given back: 37

Asked: Please do the same for O=S(=O)(NCCCCN1CCN(c2nsc3ccccc23)CC1)c1csc2ccccc12 [Compound 240] as well.
Given back: 46

Asked: Proceed to O=S(=O)(NCCCCN1CCN(c2noc3ccccc23)CC1)c1cccc2ccccc12 [Compound 13]
Given back: 7
